Cited source: the supplement of paper PMC10307832

Each entry below carries its reported relative viability.
- System: SW 1573
- Assay Summary: relative viability (nuclei count vs DMSO), 5 days (fraction); higher = more cells survive
- Condition Summary: first compound 0.001 µM

Reference set (3 entries):
Cc1cn(-c2cc(NC(=O)c3ccc(C)c(Nc4nccc(-c5cccnc5)n4)c3)cc(C(F)(F)F)c2)cn1 [Nilotinib] + N=C(N)NC(=N)NCCc1ccccc1 [Phenformin] (partner 250 µM): 0.405
Cc1cn(-c2cc(NC(=O)c3ccc(C)c(Nc4nccc(-c5cccnc5)n4)c3)cc(C(F)(F)F)c2)cn1 [Nilotinib] + CC(C)C[C@H](NC(=O)[C@H](Cc1ccccc1)NC(=O)c1cnccn1)B(O)O [Bortezomib] (partner 0.002 µM): 1.02
Cc1cn(-c2cc(NC(=O)c3ccc(C)c(Nc4nccc(-c5cccnc5)n4)c3)cc(C(F)(F)F)c2)cn1 [Nilotinib] + CCNC(=O)c1noc(-c2cc(C(C)C)c(O)cc2O)c1-c1ccc(CN2CCOCC2)cc1 [Luminespib] (partner 0.01 µM): 0.397

Could you now look at the following molecule, please?
Name the recorded relative viability of the molecule listed here: Cc1cn(-c2cc(NC(=O)c3ccc(C)c(Nc4nccc(-c5cccnc5)n4)c3)cc(C(F)(F)F)c2)cn1 [Nilotinib] + CC(=O)c1c(C)c2cnc(Nc3ccc(N4CCNCC4)cn3)nc2n(C2CCCC2)c1=O [Palbociclib] (partner 0.5 µM)
0.391

###

Each entry below carries its reported relative viability.
- Tested on: LK-2
- Assay Summary: relative viability (nuclei count vs DMSO), 5 days (fraction); higher = more cells survive
- Condition Summary: first compound 6.325 µM
Answer with a bare number; do not write a unit.

Reference set (4 entries):
Cc1csc(=NC2CCCCC2)n1/N=C/c1ccc(O)c(O)c1O [MIM1] + Cc1cc(Nc2cc(N3CCN(C)CC3)nc(Sc3ccc(NC(=O)C4CC4)cc3)n2)n[nH]1 [Tozasertib] (partner 0.1 µM): 0.166
Cc1csc(=NC2CCCCC2)n1/N=C/c1ccc(O)c(O)c1O [MIM1] + CS(=O)(=O)CCNCc1ccc(-c2ccc3ncnc(Nc4ccc(OCc5cccc(F)c5)c(Cl)c4)c3c2)o1 [Lapatinib] (partner 2 µM): 0.835
Cc1csc(=NC2CCCCC2)n1/N=C/c1ccc(O)c(O)c1O [MIM1] + N=C(N)NC(=N)NCCc1ccccc1 [Phenformin] (partner 250 µM): 0.147
Cc1csc(=NC2CCCCC2)n1/N=C/c1ccc(O)c(O)c1O [MIM1] + CCNC(=O)c1noc(-c2cc(C(C)C)c(O)cc2O)c1-c1ccc(CN2CCOCC2)cc1 [Luminespib] (partner 0.01 µM): 0.195

Could you now look at the following molecule, please?
Name the recorded relative viability of the molecule listed here: Cc1csc(=NC2CCCCC2)n1/N=C/c1ccc(O)c(O)c1O [MIM1] + CC(=O)Nc1cccc(-n2c(=O)n(C3CC3)c(=O)c3c(Nc4ccc(I)cc4F)n(C)c(=O)c(C)c32)c1 [Trametinib] (partner 0.02 µM)
1.02

###

- Test system: NCI-H1734
- Assay Summary: relative viability (nuclei count vs DMSO), 5 days (fraction); higher = more cells survive
- Condition Summary: first compound 20 µM
Response field label takes yes when relative viability is strictly below 0.2 and no in all other cases.

Cc1csc(=NC2CCCCC2)n1/N=C/c1ccc(O)c(O)c1O [MIM1] + CS(=O)(=O)N1CCN(Cc2cc3nc(-c4cccc5[nH]ncc45)nc(N4CCOCC4)c3s2)CC1 [Pictilisib] (partner 1 µM): no
Cc1csc(=NC2CCCCC2)n1/N=C/c1ccc(O)c(O)c1O [MIM1] + O=C(CCCCCCC(=O)Nc1ccccc1)NO [Vorinostat] (partner 1 µM): yes
Cc1csc(=NC2CCCCC2)n1/N=C/c1ccc(O)c(O)c1O [MIM1] + Nc1ncn([C@H]2C[C@H](O)[C@@H](CO)O2)c(=O)n1 [Decitabine] (partner 2 µM): yes

Lab note: confirm whether the reported relative viability for this molecule is below 0.2, equality not counting. molecule: Cc1csc(=NC2CCCCC2)n1/N=C/c1ccc(O)c(O)c1O [MIM1] + Cc1cc(Nc2cc(N3CCN(C)CC3)nc(Sc3ccc(NC(=O)C4CC4)cc3)n2)n[nH]1 [Tozasertib] (partner 0.1 µM)
yes

Lab note: confirm whether the reported relative viability for this molecule is below 0.2, equality not counting. molecule: Cc1csc(=NC2CCCCC2)n1/N=C/c1ccc(O)c(O)c1O [MIM1] + N=C(N)NC(=N)NCCc1ccccc1 [Phenformin] (partner 250 µM)
yes
